Tested on: Oryza sativa, (L.) Tebonnet
Method: Rice tolerance to post-transplant applications under flooded paddy conditions (Example 187), ORYSAT (Rice, Tebonnet)
Condition description: 0.1250 kg/ha, rated three to four weeks after treatment
herbicidal effect rating, ORYSAT (rice tolerance) listing for selected compounds.

Request: Return reported herbicidal effect rating, ORYSAT (rice tolerance). Input compound: C=CC(C)OCc1nsc2ccc(-n3c(=O)cc(C(F)(F)F)n(C)c3=O)cc12 (centres unmarked)
Result: 7.0

Request: For the compound "CCc1ccc(-c2nsc3ccc(-n4c(=O)cc(C(F)(F)F)n(C)c4=O)cc23)cc1" , give its reported herbicidal effect rating, ORYSAT (rice tolerance).
Result: 4.0

Others:
Request: Kindly indicate its recorded herbicidal effect rating, ORYSAT (rice tolerance). Item: "COCc1nsc2ccc(-n3c(=O)cc(C(F)(F)F)n(C)c3=O)cc12"
Result: 7.5

Request: Report measured herbicidal effect rating, ORYSAT (rice tolerance); entry is Cc1ccc(OC(C)C#N)c(-c2nsc3ccc(-n4c(=O)cc(C(F)(F)F)n(C)c4=O)cc23)c1 (centres unmarked)
Result: 3.0

Request: Entry "Cc1cc(O)c(-c2nsc3ccc(-n4c(=O)cc(C(F)(F)F)n(C)c4=O)cc23)cc1C" needs its herbicidal effect rating, ORYSAT (rice tolerance) filled in; supply it.
Result: 2.0

###

Property: herbicidal effect rating, ORYSAT (rice tolerance); scope: individual molecules
Test system: Oryza sativa, (L.) Tebonnet
Method: Rice tolerance to post-transplant applications under flooded paddy conditions (Example 187), ORYSAT (Rice, Tebonnet)
Condition description: 0.1250 kg/ha, rated three to four weeks after treatment
Respond with the number and no other words.

Request: Please report the measured herbicidal effect rating, ORYSAT (rice tolerance) for "Cc1ccc(O)c(-c2noc3ccc(-n4c(=O)cc(C(F)(F)F)n(C)c4=O)c(Cl)c23)c1"
Result: 0.0

Request: In one line, give reported herbicidal effect rating, ORYSAT (rice tolerance) of the entry CCc1ccc(OC(C)C(=O)OC)c(-c2nsc3ccc(-n4c(=O)cc(C(F)(F)F)n(C)c4=O)cc23)c1 (stereo not drawn) .
Result: 7.0

Request: Return the recorded herbicidal effect rating, ORYSAT (rice tolerance) value; entry: "COc1ccccc1Oc1noc2ccc(-n3c(=O)cc(C(F)(F)F)n(C)c3=O)cc12"
Result: 3.0

Request: Please report the measured herbicidal effect rating, ORYSAT (rice tolerance) for "Cc1ccc(OCC(=O)OCCCl)c(-c2nsc3ccc(-n4c(=O)cc(C(F)(F)F)n(C)c4=O)cc23)c1"
Result: 5.5

Request: Specify measured herbicidal effect rating, ORYSAT (rice tolerance) for "Cc1ccc(OCC(=O)OC2CCCC2)c(-c2nsc3ccc(-n4c(=O)cc(C(F)(F)F)n(C)c4=O)cc23)c1" .
Result: 4.0

Request: Return the recorded herbicidal effect rating, ORYSAT (rice tolerance) value; entry: "Cc1ccc(OCC(=O)N(C(C)C)C(C)C)c(-c2nsc3ccc(-n4c(=O)cc(C(F)(F)F)n(C)c4=O)cc23)c1"
Result: 0.0

Request: Answer with reported herbicidal effect rating, ORYSAT (rice tolerance) of "CCc1nsc2ccc(-n3c(=O)cc(C(F)(F)F)n(C)c3=O)cc12"
Result: 9.0

Request: // Input: "Cc1ccc(OCC#N)c(-c2nsc3ccc(-n4c(=O)cc(C(F)(F)F)n(C)c4=O)cc23)c1" . Output its herbicidal effect rating, ORYSAT (rice tolerance) only.
Result: 5.0

Request: Tell us which herbicidal effect rating, ORYSAT (rice tolerance) value is on record for "COC(=O)COc1ccc(C)cc1-c1nsc2ccc(-n3c(=O)cc(C)n(C)c3=O)cc12"
Result: 0.0

Request: Give recorded herbicidal effect rating, ORYSAT (rice tolerance). "Cc1ccc(OCC(=O)OCCN(C)C)c(-c2nsc3ccc(-n4c(=O)cc(C(F)(F)F)n(C)c4=O)cc23)c1"
Result: 6.0

More entries:
Request: Identify the reported herbicidal effect rating, ORYSAT (rice tolerance) for the following entry. "CC(C)SCc1nsc2ccc(-n3c(=O)cc(C(F)(F)F)n(C)c3=O)cc12"
Result: 5.0

Request: Supply recorded herbicidal effect rating, ORYSAT (rice tolerance) for Cc1ccc(OC2CC(C)OC2=O)c(-c2nsc3ccc(-n4c(=O)cc(C(F)(F)F)n(C)c4=O)cc23)c1 (racemic) here.
Result: 0.0

Request: Consider the molecule COCC(C)OC(=O)COc1ccc(C)cc1-c1nsc2ccc(-n3c(=O)cc(C(F)(F)F)n(C)c3=O)cc12 (racemic) and give its recorded herbicidal effect rating, ORYSAT (rice tolerance).
Result: 3.0

Request: Return herbicidal effect rating, ORYSAT (rice tolerance) for the following molecule: "Cn1c(C(F)(F)F)cc(=O)n(-c2ccc3snc(Br)c3c2)c1=O"
Result: 1.0

Request: State, in one line, measured herbicidal effect rating, ORYSAT (rice tolerance) of "CSCc1nsc2ccc(-n3c(=O)cc(C(F)(F)F)n(C)c3=O)cc12"
Result: 2.3

###

Tested on: Cyperus iria
Method: Preemergence weed control under flooded paddy conditions, CYPIR (Rice Flatsedge)
Type: in vivo
Condition description: 0.1250 kg/ha; preemergence, flooded paddy; rated three to four weeks after treatment
Overview of reported CYPIR herbicidal rating across a group of compounds:

Here are 3 compounds together with their reported answers.
Request: Please indicate CYPIR herbicidal rating recorded for "Cc1ccc(OC(C)(C)C(=O)OC(C)(C)C)c(-c2nsc3ccc(-n4c(=O)cc(C(F)(F)F)n(C)c4=O)cc23)c1"
Result: 2.0

Request: Consider the compound "Cn1c(C(F)(F)F)cc(=O)n(-c2ccc3snc(C(=O)NS(=O)(=O)CCc4ccccc4)c3c2)c1=O" and give its recorded CYPIR herbicidal rating.
Result: 5.0

Request: Answer with the recorded CYPIR herbicidal rating for the compound listed here: "CSCOCc1nsc2ccc(-n3c(=O)cc(C(F)(F)F)n(C)c3=O)cc12"
Result: 6.0

Continuing:
Request: Consider the compound "Cn1c(C(F)(F)F)cc(=O)n(-c2ccc3snc(COC(=O)C(C)(C)C)c3c2)c1=O" . State its measured CYPIR herbicidal rating.
Result: 9.0

Request: Entry COC(=O)C(C)Oc1cc(C)c(I)cc1-c1nsc2ccc(-n3c(=O)cc(C(F)(F)F)n(C)c3=O)cc12 (stereo not drawn) needs its CYPIR herbicidal rating filled in; supply it.
Result: 6.0

Request: Read the entry "COC(=O)COc1cc(Cl)c(C)cc1-c1nsc2ccc(-n3c(=O)cc(C(F)(F)F)n(C)c3=O)cc12" and write its reported CYPIR herbicidal rating.
Result: 7.0

Request: Using the record for "Cn1c(C(F)(F)F)cc(=O)n(-c2ccc3snc(COC(=O)c4ccco4)c3c2)c1=O" , state its measured CYPIR herbicidal rating.
Result: 9.0

Request: Return CYPIR herbicidal rating (reported value) for this compound: "CN(C)S(=O)(=O)NC(=O)c1nsc2ccc(-n3c(=O)cc(C(F)(F)F)n(C)c3=O)cc12"
Result: 9.0

Request: Identify measured CYPIR herbicidal rating corresponding to "CC(C)N(C(C)C)S(=O)(=O)NC(=O)C(C)(C)c1nsc2ccc(-n3c(=O)cc(C(F)(F)F)n(C)c3=O)cc12"
Result: 2.0

Request: Quickly give me recorded CYPIR herbicidal rating for "Cc1ccc(OC(C)(C)C(=O)O)c(-c2nsc3ccc(-n4c(=O)cc(C(F)(F)F)n(C)c4=O)cc23)c1"
Result: 4.0

Request: State, in one line, measured CYPIR herbicidal rating of COC(=O)C(C)Oc1cc(Cl)c(C)cc1-c1nsc2ccc(-n3c(=O)cc(C(F)(F)F)n(C)c3=O)cc12 (stereo not drawn)
Result: 4.0

Request: Retrieve CYPIR herbicidal rating measured for "Cn1c(C(F)(F)F)cc(=O)n(-c2ccc3snc(C(=O)NS(=O)(=O)Cc4ccc(Cl)cc4)c3c2)c1=O" and print it.
Result: 6.0

###

Test system: Sagittaria pygmaea, L.
Method: Preemergence weed control under flooded paddy conditions, SAGPY (Arrowhead (Pygmaea)); further: meaning of each grade not given here
Format: in vivo
Condition description: Rate 0.2500 kg/ha; preemergence, flooded paddy; rated 3-4 weeks after treatment
// reported herbicidal effect rating, SAGPY for each item listed
Give the figure by itself; no unit, no explanation.

Known results for compounds:
Request: Please look at this compound and report its herbicidal effect rating, SAGPY: CNC(=O)COc1ccc(C)cc1-c1nsc2ccc(-n3c(=O)cc(C(F)(F)F)n(C)c3=O)cc12 [Example 561]
Result: 3.0

Request: Give the value of herbicidal effect rating, SAGPY reported for the following: C=CC(CCCC)OC(=O)COc1ccc(C)cc1-c1nsc2ccc(-n3c(=O)cc(C(F)(F)F)n(C)c3=O)cc12 (centres unmarked) [Example 520]
Result: 0.0

Request: Retrieve herbicidal effect rating, SAGPY measured for CCOC(=O)C1CCC(OC(=O)COc2ccc(C)cc2-c2nsc3ccc(-n4c(=O)cc(C(F)(F)F)n(C)c4=O)cc23)CC1 (single isomer, unassigned; isomer a) [Example 524] and print it.
Result: 0.0

New cases:
Request: Give the reported herbicidal effect rating, SAGPY for this compound. CNC(=O)COc1ccccc1-c1nsc2ccc(-n3c(=O)cc(C(F)(F)F)n(C)c3=O)cc12 [Example 562]
Result: 7.0

Request: For the compound CCCS(=O)(=O)NC(=O)COc1ccccc1-c1nsc2ccc(-n3c(=O)cc(C(F)(F)F)n(C)c3=O)cc12 [Example 556] , give its measured herbicidal effect rating, SAGPY value.
Result: 4.0

Request: Give herbicidal effect rating, SAGPY for Cc1ccc(OCC(=O)OCC2(c3ccccc3)CC2)c(-c2nsc3ccc(-n4c(=O)cc(C(F)(F)F)n(C)c4=O)cc23)c1 [Example 517]
Result: 0.0

Request: For the compound Cc1ccc(OC(C)(C)C(=O)OCC(F)(F)F)c(-c2nsc3ccc(-n4c(=O)cc(C(F)(F)F)n(C)c4=O)cc23)c1 [Example 545] , report herbicidal effect rating, SAGPY.
Result: 7.0

Request: Please list herbicidal effect rating, SAGPY recorded for the compound Cn1c(C(F)(F)F)cc(=O)n(-c2ccc3snc(-c4ccccc4OCC(N)=O)c3c2)c1=O [Example 548]
Result: 4.0

Request: Report herbicidal effect rating, SAGPY, nothing else, for this compound: CCOC(=O)c1ccc(NC(=O)C(C)Oc2ccc(C)cc2-c2nsc3ccc(-n4c(=O)cc(C(F)(F)F)n(C)c4=O)cc23)cc1 (centres unmarked) [Example 541]
Result: 0.0

Request: State, in one line, measured herbicidal effect rating, SAGPY of C=CS(=O)(=O)NC(=O)COc1ccccc1-c1nsc2ccc(-n3c(=O)cc(C(F)(F)F)n(C)c3=O)cc12 [Example 557]
Result: 4.0

Request: Output measured herbicidal effect rating, SAGPY for this item: C=CCOC(=O)C(C)(C)Oc1ccc(C)cc1-c1nsc2ccc(-n3c(=O)cc(C(F)(F)F)n(C)c3=O)cc12 [Example 530]
Result: 9.0

Origin of the recorded values: patent EP0908457B1
